Catalogue of molecules with associated IC50
Target: recombinant human Lp-PLA2 (Homo sapiens, UniProt Q13093)
Sequence (Q13093 22-441): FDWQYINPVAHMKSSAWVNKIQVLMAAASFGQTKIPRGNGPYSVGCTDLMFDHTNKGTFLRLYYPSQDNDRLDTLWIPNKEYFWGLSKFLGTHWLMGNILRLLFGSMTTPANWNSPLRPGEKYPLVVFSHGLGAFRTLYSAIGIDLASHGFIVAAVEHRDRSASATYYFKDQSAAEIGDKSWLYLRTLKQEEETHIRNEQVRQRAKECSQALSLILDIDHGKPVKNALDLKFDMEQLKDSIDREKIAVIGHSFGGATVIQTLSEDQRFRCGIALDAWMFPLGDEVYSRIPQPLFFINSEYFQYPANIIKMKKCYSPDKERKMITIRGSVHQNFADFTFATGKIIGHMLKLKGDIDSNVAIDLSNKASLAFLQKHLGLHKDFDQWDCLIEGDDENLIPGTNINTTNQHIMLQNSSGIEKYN
Experiment: (1a) PED6 assay, recombinant human Lp-PLA2 (rhLp-PLA2)
Assay type: biochemical
Conditions: Examples 1-167 and 413-430 were tested here, one experiment or average of multiple experiments, read-out: rhLp-PLA2 (pIC50) (converted)

>  <molecule>
N#Cc1cc(COc2cc3n(c(=O)n2)C[C@@H]2CCCN32)ccc1Oc1cccc(F)c1 [Example E86]

>  <IC50>
≤ 100 nM

$$$$
>  <molecule>
N#Cc1cc(COc2cc3n(c(=O)n2)CC2CCCCN32)ccc1Oc1ccc(F)c(F)c1 (centres unmarked) [Example E19]

>  <IC50>
≤ 1 nM

$$$$
>  <molecule>
Cn1cc(Oc2c(F)cc(COc3cc4n(c(=O)n3)C[C@H]3CCCN43)cc2F)cn1 [Example E66]

>  <IC50>
≤ 100 nM

$$$$
>  <molecule>
O=c1nc(OCc2cc(F)c(Oc3ccc(C(F)(F)F)nc3)c(F)c2)cc2n1CC1CCCCN21 (centres unmarked) [Example E39]

>  <IC50>
≤ 1 nM

$$$$
>  <molecule>
O=c1nc(OCc2ccc(Oc3cncc(C(F)(F)F)c3)c(F)c2)cc2n1CC1CCCCN21 (centres unmarked) [Example E47]

>  <IC50>
≤ 1 nM

$$$$
>  <molecule>
O=c1nc(OCc2cc(F)c(Oc3ccnc(C(F)(F)F)c3)c(F)c2)cc2n1CC1CCCCN21 (centres unmarked) [Example E41]

>  <IC50>
≤ 1 nM

$$$$
>  <molecule>
CCn1cc(Oc2c(F)cc(COc3cc4n(c(=O)n3)C[C@H]3COCCN43)cc2F)cn1 [Example E115]

>  <IC50>
1 nM

$$$$

Please report the recorded IC50 for O=c1nc(OCc2cc(F)c(Oc3ccnc(C(F)(F)F)c3)c(F)c2)cc2n1C[C@@H]1COCN21 [Example E142] . ≤ 1 nM

###

Target: recombinant human Lp-PLA2 (Homo sapiens)
Experiment: (1a) PED6 assay, recombinant human Lp-PLA2 (rhLp-PLA2)
Type: biochemical
Details: Examples 1-167 and 413-430 were tested here, one experiment or average of multiple experiments, read-out: rhLp-PLA2 (pIC50) (converted)
From the text: (1) Recombinant Human Lp-PLA2 Assays (rhLp-PLA2) N-((6-(2,4-Dinitrophenyl)amino)-hexanoyl)-2-(4,4-difluoro-5,7-dimethyl-4-bora-3a,4a-diaza-s-indacene-3-pentanoyl)-1-hexadecanoyl-sn-glycero-3-phosphoethanolamine, triethylammonium salt (PED6) is a commercially available fluorescently-labeled phospholipid, which is commercially available from Invitrogene and Molecular Probes. […] Upon cleavage with Lp-PLA2, the Bodipy FL group is liberated and then may result in an increase in fluorescence. […]
assay-endpoint: IC50

Worked cases, IC50 given:
>  <compound>
Cc1ccc(Oc2c(F)cc(COc3cc4n(c(=O)n3)C[C@@H]3COCCN43)cc2F)cn1

>  <IC50>
≤ 1 nM

$$$$
>  <compound>
CCCn1cc(Oc2c(F)cc(COc3cc4n(c(=O)n3)C[C@@H]3COCN43)cc2F)cn1

>  <IC50>
≤ 100 nM

$$$$
>  <compound>
O=c1nc(OCc2ccc(Oc3ccc(C(F)(F)F)nc3)c(F)c2)cc2n1CC1CCCCN21 (stereo not shown) [Example E22]

>  <IC50>
≤ 1 nM

$$$$
>  <compound>
CCn1cc(Oc2c(F)cc(COc3cc4n(c(=O)n3)CC3COCCN43)cc2F)cn1 (stereo not shown)

>  <IC50>
1.26 nM

$$$$
>  <compound>
Cc1ccc(Oc2c(F)cc(COc3cc4n(c(=O)n3)C[C@H]3COCCN43)cc2F)cn1

>  <IC50>
0.0631 nM

$$$$

API: value(readout=IC50, system=recombinant human Lp-PLA2 (Homo sapiens)) for record O=c1nc(OCc2cc(F)c(F)c(Cl)c2)cc2n1CC1CCCCN21 (stereo not shown) ≤ 100 nM

Given the entry O=c1nc(OCc2cc(F)c(Oc3cccc(C(F)(F)F)c3)c(F)c2)cc2n1CC1CCCN21 (stereo not shown) , what IC50 was observed with recombinant human Lp-PLA2 (Homo sapiens)? ≤ 1 nM

Where do these numbers come from? They come from patent US11999746B2.
